# System: K24384-001-R-PDC complex spheroids, viability;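 note: spheroids exposed to compounds for seven days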
# Procedure Summary: Anticancer human tumor K24384-001-R-PDC patient-derived pancreatic adenocarcinoma cell line growth inhibition [GQUAD]
# Recorded Conditions: second compound 0.0316 µM; first compound 0.00316 µM; stronger effect = lower value
# if measured viability, T/C < 80%: T  # else: F

Molecule	Class Name
CCc1c2c(nc3ccc(O)cc13)-c1cc3c(c(=O)n1C2)COC(=O)[C@]3(O)CC + Cc1cnc(CNC(=O)c2c(=O)c3ccc(N4CCCN(C)CC4)nc3n3c2sc2ccccc23)cn1	T
CCc1c2c(nc3ccc(O)cc13)-c1cc3c(c(=O)n1C2)COC(=O)[C@]3(O)CC + Cc1[nH]c2ccc(F)cc2c1-c1nc2c3cccnc3c3ncccc3c2[nH]1	T
CC[C@@]1(O)C(=O)OCc2c1cc1n(c2=O)Cc2cc3c(CN(C)C)c(O)ccc3nc2-1 + Cc1[nH]c2ccc(F)cc2c1-c1nc2c3cccnc3c3ncccc3c2[nH]1	F
Cc1[nH]c2ccccc2c1CCNCc1ccc(/C=C/C(=O)NO)cc1 + CN(C)c1ccc(Nc2c3ccc(NC(=O)CCN4CCCC4)cc3nc3cc(NC(=O)CCN4CCCC4)ccc23)cc1	F
CC[C@@]1(O)C(=O)OCc2c1cc1n(c2=O)Cc2cc3c(CN(C)C)c(O)ccc3nc2-1 + Cc1cnc(CNC(=O)c2c(=O)c3ccc(N4CCCN(C)CC4)nc3n3c2sc2ccccc23)cn1	T
Cc1[nH]c2ccccc2c1CCNCc1ccc(/C=C/C(=O)NO)cc1 + Cc1cnc(CNC(=O)c2c(=O)c3ccc(N4CCCN(C)CC4)nc3n3c2sc2ccccc23)cn1	T
CC[C@@]1(O)C(=O)OCc2c1cc1n(c2=O)Cc2cc3c(CN(C)C)c(O)ccc3nc2-1 + CN(C)c1ccc(Nc2c3ccc(NC(=O)CCN4CCCC4)cc3nc3cc(NC(=O)CCN4CCCC4)ccc23)cc1	F
Cc1[nH]c2ccccc2c1CCNCc1ccc(/C=C/C(=O)NO)cc1 + Cc1[nH]c2ccc(F)cc2c1-c1nc2c3cccnc3c3ncccc3c2[nH]1	F
Cn1ncnc1[C@H]1c2n[nH]c(=O)c3cc(F)cc(c23)N[C@@H]1c1ccc(F)cc1 + Cc1[nH]c2ccc(F)cc2c1-c1nc2c3cccnc3c3ncccc3c2[nH]1	F
